assay-notes: Solubility in 0.1 N HCl
Assay type: physicochemical
experimental-conditions: simulated gastric fluid
assay-readout: solubility (µg/mL)
The reply should be a number in µg/mL, with the unit left off.

[in] Which solubility value is on record for C=CC(=O)Nc1cc(N2CCN(CC)CC2)ccc1Nc1cc(N(C)C(=O)Nc2c(Cl)c(OC)cc(OC)c2Cl)ncn1 [Compound 108] ?
[out] 5200
